Endpoint: IC50. System: Acetylcholinesterase (Rattus norvegicus, UniProt P37136). Items follow.
Sequence (P37136 whole entry): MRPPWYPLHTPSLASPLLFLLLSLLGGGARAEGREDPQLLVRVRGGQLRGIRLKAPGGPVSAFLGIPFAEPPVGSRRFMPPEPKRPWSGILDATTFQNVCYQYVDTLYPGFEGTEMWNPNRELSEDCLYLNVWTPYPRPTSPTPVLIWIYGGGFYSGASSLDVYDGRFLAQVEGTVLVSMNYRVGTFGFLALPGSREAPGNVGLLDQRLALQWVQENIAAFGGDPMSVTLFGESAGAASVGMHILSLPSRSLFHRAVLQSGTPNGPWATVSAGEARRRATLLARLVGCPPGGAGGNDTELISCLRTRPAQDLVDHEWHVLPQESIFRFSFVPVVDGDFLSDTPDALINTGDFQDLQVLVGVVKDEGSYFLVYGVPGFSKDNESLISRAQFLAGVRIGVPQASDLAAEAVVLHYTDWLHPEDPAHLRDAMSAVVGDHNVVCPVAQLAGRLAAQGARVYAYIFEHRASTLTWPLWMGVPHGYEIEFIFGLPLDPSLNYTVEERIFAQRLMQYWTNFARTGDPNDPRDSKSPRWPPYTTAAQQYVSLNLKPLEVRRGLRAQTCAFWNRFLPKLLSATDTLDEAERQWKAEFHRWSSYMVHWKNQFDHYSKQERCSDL
Respond numerically; units are nM and should not be typed.

Past entries and their recorded results:
# compound, propertyMeasured, reported
data = [
    ("COc1cc(C2CC(=O)c3ccccc3O2)cc([N+](=O)[O-])c1O (configuration not stated)", "IC50", 144),
    ("COc1cc(OC)c2c(c1)OC(c1cccc(OC(=O)Nc3ccccc3)c1)CC2=O (configuration not stated)", "IC50", 19.6),
]

Kindly consider the entry below.
Req: Give IC50 (Acetylcholinesterase (Rattus norvegicus, UniProt P37136)) of the following compound: COc1cc(OC)c2c(c1)OC(c1ccccc1O)CC2=O (configuration not stated)
Resp: 120

###

What follows is a collection of pIC50 values obtained with Acetylcholinesterase (Rattus norvegicus).
Reminder that pIC50 is minus the log10 of a molar concentration.

# compound, targetOrSystem, reported
data = [
    ("COc1cc(C2CC(=O)c3ccccc3O2)cc(OC)c1O (centres undefined)", "Acetylcholinesterase (Rattus norvegicus)", 6.88),
    ("COc1cc(C2CC(=O)c3ccccc3O2)ccc1O (centres undefined)", "Acetylcholinesterase (Rattus norvegicus)", 6.86),
    ("COc1cc(OC)c2c(c1)OC(c1ccc(OC)c(OC(=O)Nc3ccccc3)c1)CC2=O (centres undefined)", "Acetylcholinesterase (Rattus norvegicus)", 7.79),
]

Next:
Req: State its pIC50 on Acetylcholinesterase (Rattus norvegicus): O=C(Nc1ccccc1)Oc1ccccc1C1CC(=O)c2ccccc2O1 (centres undefined)
Resp: 7.40
